experiment: Stability test in a 60° C. drying oven (impurity, content, XRPD); assay type: physicochemical; settings: 60° C. drying oven, 7 days
Structures can show the parent of a compound that is named as a salt.
Would you kindly list Total impurity % for each of these compounds?
Record the value in %, omitting the unit from your answer.

Enquiry: Give the measured Total impurity % of COC[C@@H](C)N[C@H]1CC[C@H](Nc2cc(-c3csc(NCC4(C#N)CCOCC4)n3)c(Cl)cn2)CC1 [free base of the compound of formula (I)] .
Return: 1.58

Enquiry: What about COC[C@@H](C)N[C@H]1CC[C@H](Nc2cc(-c3csc(NCC4(C#N)CCOCC4)n3)c(Cl)cn2)CC1 [crystal form 2] ?
Return: 1.44

Enquiry: What about COC[C@@H](C)N[C@H]1CC[C@H](Nc2cc(-c3csc(NCC4(C#N)CCOCC4)n3)c(Cl)cn2)CC1 [crystal form 1 of the maleate of the compound of formula (I)] ?
Return: 0.12

Enquiry: What about COC[C@@H](C)N[C@H]1CC[C@H](Nc2cc(-c3csc(NCC4(C#N)CCOCC4)n3)c(Cl)cn2)CC1 [crystal form A of the fumarate of the compound of formula (I] ?
Return: 0.69

The measured values listed here are drawn from patent US12384774B2.
